Test: T. gondii ME49Luc in HeLa cells, luciferase assay, 72 h, no IFN-y (AID 1259421)
Conditions: concentration not given here
Hit rate of the full screen: of about 6,400 compounds, about 610 (9.5%) were called active. No stated cut-off is given here; in the data, active means activity change below about -70%; inconclusive means no clear call, values can overlap the other calls; inactive means above that. The list comes from a sample in which actives are over-represented; it also holds close analogues and randomly drawn compounds.
Your reply should match one of these outcome classes. yes (1) for active, no (0) for inactive

Look over these answered cases.
{"compound": "CCC[C@@H]1C[C@@H](C(=O)N[C@H]([C@H]2O[C@H](SC)[C@H](O)[C@@H](O)[C@H]2O)[C@H](C)O)N(C)C1", "assigned label": "no (0)"}
{"compound": "CC1(C)CC23C(=O)CCC(O)C2(C)CCC13 (configuration not stated)", "assigned label": "no (0)"}
{"compound": "CCOc1ccc(Cc2cc([C@@]34OC[C@@](CO)(O3)[C@@H](O)[C@H](O)[C@H]4O)ccc2Cl)cc1", "assigned label": "no (0)"}

Inquiry: Hello, I am checking results. What call was entered for CC[C@@H](C(=O)[C@@H](C)[C@@H](O)[C@H](C)[C@@H]1O[C@@H]([C@@H](CC)C(=O)O)CC[C@@H]1C)[C@H]1O[C@]2(C=C[C@@H](O)[C@]3(CC[C@@](C)(C4CC[C@](O)(CC)[C@H](C)O4)O3)O2)[C@H](C)C[C@@H]1C (some centres not stated) ?
Reply text: yes (1)

Inquiry: Note, next up: "N[C@@]1(C(=O)O)CS(=O)(=O)[C@H]2[C@H](C(=O)O)[C@H]21"
Reply text: no (0)

Inquiry: Next compound: "CNC(=O)[C@@H](NC(=O)[C@H](CC(C)C)[C@H](O)C(=O)NO)C(C)(C)C"
Reply text: no (0)

Inquiry: What do you get for "CC(C)C[C@@H](C(=O)N[C@H](C(=O)OC1CCCC1)c1ccccc1)[C@H](O)C(=O)NO" ?
Reply text: yes (1)
